B1: Tryptophan synthase alpha chain, P0A877 (parent)
chain: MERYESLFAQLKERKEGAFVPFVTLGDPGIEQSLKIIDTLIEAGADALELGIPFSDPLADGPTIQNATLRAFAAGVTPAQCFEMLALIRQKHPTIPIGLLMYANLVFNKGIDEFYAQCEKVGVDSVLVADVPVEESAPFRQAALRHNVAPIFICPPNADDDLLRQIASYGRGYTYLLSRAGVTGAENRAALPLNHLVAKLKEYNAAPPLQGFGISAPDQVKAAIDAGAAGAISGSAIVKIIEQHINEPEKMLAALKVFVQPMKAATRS

- Variants of: B1
- stated conditions: Escherichia coli (strain K12); pH 7.8; 25 °C; Urea; NMR; Potassium phosphate 58 mM; reversible: yes; structure 1WQ5; whole UniProt chain shown
recorded metric: unfolding free energy (kJ/mol)
I only need the number, in kJ/mol, no unit after it.

> print(dat)
   mutation.name   val
1          L100A  19.7
2           P96A  20.5
3           I95A  33.1

**Q:** // query unfolding free energy value for entry P93A H244A
**A:** 14.2

**Q:** Then Y102A ?
**A:** 22.6
